Target: human Factor XIa (Homo sapiens (Human))
Sequence (P03951 388-625): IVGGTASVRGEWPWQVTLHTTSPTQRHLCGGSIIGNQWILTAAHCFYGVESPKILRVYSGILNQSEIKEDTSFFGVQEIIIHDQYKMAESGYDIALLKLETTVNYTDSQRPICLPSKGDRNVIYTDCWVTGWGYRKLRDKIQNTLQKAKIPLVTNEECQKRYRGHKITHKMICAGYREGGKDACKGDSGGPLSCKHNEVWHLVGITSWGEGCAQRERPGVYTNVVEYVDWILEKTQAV
Sequence (P03951 19-387 partner): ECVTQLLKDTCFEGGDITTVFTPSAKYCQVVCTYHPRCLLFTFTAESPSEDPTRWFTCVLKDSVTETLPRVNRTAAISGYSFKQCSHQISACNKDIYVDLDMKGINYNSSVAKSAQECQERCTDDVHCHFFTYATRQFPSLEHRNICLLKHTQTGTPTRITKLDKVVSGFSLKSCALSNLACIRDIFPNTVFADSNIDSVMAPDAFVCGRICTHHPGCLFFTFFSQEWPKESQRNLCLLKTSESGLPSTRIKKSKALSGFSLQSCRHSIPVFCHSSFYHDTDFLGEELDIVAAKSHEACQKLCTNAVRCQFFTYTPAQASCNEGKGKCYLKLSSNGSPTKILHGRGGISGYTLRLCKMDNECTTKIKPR
Experiment: Factor XIa Assay
Assay type: biochemical
Conditions Used: read-out: FXIa Ki
pKi: −log10 of the molar value.
Answer 0 (no) if pKi is under 6, and 1 (yes) if it is 6 or more.

- Compound: "O=C1Nc2ccc(Cl)c(F)c2[C@@]2(CCCN(C(=O)[C@H](CC3CC3)NC(=O)c3cc4cc(O)ccc4[nH]3)C2)O1"
  Discrete Label: "1 (yes)"
- Compound: "CC(=O)Nc1cc(C(=O)N[C@@H](Cc2ccccc2)C(=O)N2CCC3(C2)OC(=O)Nc2ccc(Cl)cc23)ccn1 (some centres unmarked)"
  Discrete Label: "1 (yes)"
- Compound: "O=C1Nc2ccc(Cl)cc2C2(CCN(C(=O)[C@H](Cc3ccccc3)NC(=O)c3ccc(Nc4ncc[nH]4)cc3)C2)O1 (some centres unmarked)"
  Discrete Label: "1 (yes)"

From here, focus on the item given below.
Ask | Does the compound O=C1Nc2ccc(Cl)cc2C2(CCN(C(=O)[C@H](Cc3ccccc3)NC(=O)c3ccon3)C2)O1 (some centres unmarked) have recorded pKi that is 6 or more?
Reply | 0 (no)

----------
Target: human Factor XIa (Homo sapiens (Human))
Experiment: Factor XIa Assay
Assay type: biochemical
Conditions Used: purified human Factor XIa 40 pM, Z-Gly-Pro-Arg-AFC 100 μM, pH 7.4; read-out: FXIa Ki
pKi: −log10 of the molar value.
Measured pKi values are reported for all entries that follow.

Ask | Data request, read-out pKi, for COC(=O)Nc1ccc(C(=O)N[C@@H](Cc2ccccc2)C(=O)N2CCC[C@@]3(C2)OC(=O)Nc2cc(F)c(Cl)c(F)c23)cc1
Reply | 7.29

Ask | For O=C1Nc2ccc(Cl)cc2C2(CCN(C(=O)[C@H](Cc3ccccc3)NS(=O)(=O)c3ccc4oc(O)nc4c3)C2)O1 (stereo partly shown) , what is its reported pKi?
Reply | ≤ 5.30

Ask | Quick one: pKi for COC(=O)Nc1ccc2[nH]c(C(Cc3ccccc3)C(=O)N3CCC[C@@]4(C3)OC(=O)Nc3ccc(Cl)c(F)c34)cc2c1 (stereo partly shown) ?
Reply | < 6.06

Ask | Quick one: pKi of O=C1Nc2ccc(Cl)cc2[C@]2(CCN(C(=O)[C@H](Cc3ccccc3)C(=O)Nc3ccc(C(=O)O)cc3)C2)O1 [Example 121b] ?
Reply | ≤ 5.30

----------
Target: UniProt P03951
Experiment: Factor XIa Assay
Format: biochemical
Conditions Used: purified human Factor XIa 40 pM, Z-Gly-Pro-Arg-AFC 100 μM, pH 7.4; read-out: FXIa Ki
Protocol: The effectiveness of a compound of the present invention as an inhibitor of Coagulation Factor XIa can be determined using a relevant purified serine protease, and an appropriate synthetic substrate. The rate of hydrolysis of the chromogenic or fluorogenic substrate by the relevant serine protease was measured both in the absence and presence of compounds of the present invention. […] A decrease in the rate of fluorescence change in the presence of inhibitor is indicative of enzyme inhibition. […]
pKi: −log10 of the molar value.
Consider the following molecules and their measured pKi readings.

# example entries with known answers
- Molecule: "CNC(=O)Nc1ccc(S(=O)(=O)N[C@@H](Cc2ccccc2)C(=O)N2CCC3(C2)OC(=O)Nc2ccc(Cl)cc23)c(Cl)c1 (stereo partly drawn)"
  Value Observed: "≤ 5.30"
- Molecule: "COC(=O)Nc1ccc(C(=O)N[C@@]2(C(=O)N3CCC4(C3)OC(=O)Nc3ccc(Cl)cc34)C[C@@H]2c2ccccc2)cc1 (stereo partly drawn)"
  Value Observed: "≤ 5.30"

Continue with the next molecule.
Ask | Request the reported pKi associated with O=C1Nc2ccc(Cl)cc2C2(CCN(C(=O)[C@H](Cc3ccccc3)NS(=O)(=O)c3ccc(C(=O)O)cc3)C2)O1 (stereo partly drawn)
Reply | ≤ 5.30

----------
Target: human Factor XIa (Homo sapiens (Human))
Experiment: Factor XIa Assay
Assay type: biochemical
Conditions Used: purified human Factor XIa 40 pM, Z-Gly-Pro-Arg-AFC 100 μM, pH 7.4; read-out: FXIa Ki
The threshold is 20 nM. Values of Ki beneath it are tagged Condition met; values meeting or exceeding it are tagged Condition not met.

- Compound: "COC(=O)Nc1ccc(-c2ncc(C(Cc3ccccc3)C(=O)N3CCC[C@@]4(C3)OC(=O)Nc3ccc(Cl)c(F)c34)[nH]2)cc1 (single isomer, unassigned) [Example 130B]"
  Discrete Label: "Condition not met"
- Compound: "COC(=O)Nc1ccc(C(=O)N[C@@H](Cc2ccc3ccccc3c2)C(=O)N2CCC3(C2)OC(=O)Nc2ccc(Cl)cc23)cc1 (stereo partly drawn)"
  Discrete Label: "Condition not met"
- Compound: "COC(=O)Nc1ccc(-c2ncc(C(Cc3ccccc3)C(=O)N3CCC[C@@]4(C3)OC(=O)Nc3ccc(Cl)c(F)c34)[nH]2)cc1 (single isomer, unassigned) [Example 130A]"
  Discrete Label: "Condition not met"
- Compound: "COC(=O)Nc1ccc(C(=O)N[C@@H](CC(C)(C)O)C(=O)N2CC[C@@]3(C2)OC(=O)Nc2ccc(Cl)cc23)cc1"
  Discrete Label: "Condition met"
- Compound: "COC(=O)Nc1ccc(C(=O)N[C@@H](CC(=O)N2CC(OC)C2)C(=O)N2CCC[C@@]3(C2)OC(=O)Nc2ccc(Cl)cc23)cc1"
  Discrete Label: "Condition not met"

Kindly consider the entry below.
Ask | Problem: For the compound COC(=O)Nc1ccc(C(=O)N[C@@H](CC(=O)N2CC[C@@H]2C)C(=O)N2CCC[C@@]3(C2)OC(=O)Nc2ccc(Cl)cc23)cc1 , is Ki under 20 nM?
Reply | Condition met

----------
Target: Human plasma kallikrein (Homo sapiens (Human))
Sequence (P03952 391-638): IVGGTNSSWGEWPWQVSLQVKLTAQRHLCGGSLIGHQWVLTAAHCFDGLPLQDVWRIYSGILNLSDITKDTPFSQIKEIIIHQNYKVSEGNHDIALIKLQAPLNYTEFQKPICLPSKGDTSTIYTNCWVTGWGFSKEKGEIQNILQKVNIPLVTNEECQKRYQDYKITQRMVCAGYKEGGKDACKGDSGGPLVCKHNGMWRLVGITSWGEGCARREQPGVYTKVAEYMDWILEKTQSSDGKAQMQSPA
Sequence (P03952 20-390 partner): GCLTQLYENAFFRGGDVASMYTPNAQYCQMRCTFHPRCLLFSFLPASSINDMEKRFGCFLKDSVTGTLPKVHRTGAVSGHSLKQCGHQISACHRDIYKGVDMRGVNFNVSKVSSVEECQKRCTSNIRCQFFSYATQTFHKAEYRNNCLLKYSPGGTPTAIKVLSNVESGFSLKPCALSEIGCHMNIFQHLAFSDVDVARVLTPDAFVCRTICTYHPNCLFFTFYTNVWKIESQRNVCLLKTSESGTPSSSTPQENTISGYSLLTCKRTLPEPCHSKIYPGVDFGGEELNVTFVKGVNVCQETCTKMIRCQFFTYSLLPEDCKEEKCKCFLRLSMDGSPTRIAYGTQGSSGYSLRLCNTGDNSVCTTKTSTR
Experiment: Kallikrein Assay
Conditions Used: purified Human plasma kallikrein 0.5 nM, Acetyl-K-P-R-AFC, pH 7.4; Ki from IC50 by Cheng Prusoff
Outcome Measure: pKi
Conceptually, pKi converts a concentration in mol/L into minus its log10.

A selection of reference data follows.
- Molecule: "Cc1ncc(C(=O)N[C@@H](Cc2ccccc2)C(=O)N2CCC3(C2)OC(=O)Nc2ccc(Cl)cc23)cn1 (stereo partly drawn) [Example 144]"
  Target: "Human plasma kallikrein (Homo sapiens (Human))"
  Value Observed: 8.11
- Molecule: "O=C1Nc2ccc(Cl)c(F)c2[C@@]2(CCCN(C(=O)C(Cc3ccccc3)c3ncc(-c4ccc(C(=O)O)s4)[nH]3)C2)O1 (stereo partly drawn) [Example 123]"
  Target: "Human plasma kallikrein (Homo sapiens (Human))"
  Value Observed: 8.33

Ask | # query: pKi of entry COC(=O)Nc1ccc(C(=O)N[C@@H](Cc2ccccc2)C(=O)N2CCC[C@@]3(C2)OC(=O)Nc2ccc(Cl)cc23)cc1 [Example 3b]
Reply | 8.81

Ask | Report pKi for CC(C)(O)C[C@H](NC(=O)c1ccc2c(N)n[nH]c2c1)C(=O)N1CCC[C@@]2(C1)OC(=O)Nc1ccc(Cl)cc12 [Example 269] please.
Reply | 8.52

Ask | Please look up its pKi: COC(=O)Nc1ccc(C(=O)N[C@@H](CC(=O)NCc2ccnn2C)C(=O)N2CCC[C@@]3(C2)OC(=O)Nc2ccc(Cl)cc23)cc1 [Example 98]
Reply | 7.60

Ask | # pKi lookup, item COC(=O)Nc1ccc(C(=O)N[C@@H](CC(=O)N2CC3CCCC32)C(=O)N2CCC[C@@]3(C2)OC(=O)Nc2ccc(Cl)cc23)cc1 (stereo partly drawn) [Example 94]
Reply | 8.85

Ask | For the molecule shown here, COC(=O)Nc1ccc(C(=O)N[C@@H](CC2CC2)C(=O)N2CCC[C@@]3(C2)OC(=O)Nc2ccc(Cl)c(F)c23)cc1 [Example 63] , give the reported pKi.
Reply | 8.76

Ask | Recorded pKi for Nc1n[nH]c2cc(C(=O)N[C@@H](Cc3ccccc3)C(=O)N3CC[C@@]4(C3)OC(=O)Nc3ccc(Cl)c(F)c34)ccc12 [Example 195] , please?
Reply | 8.72

Ask | # query: pKi of entry COC(=O)Nc1cnc(C(=O)N[C@@H](Cc2ccccc2)C(=O)N2CCC[C@@]3(C2)OC(=O)Nc2ccc(Cl)c(F)c23)nc1 [Example 234]
Reply | 8.52

Ask | # pKi lookup, item COC(=O)Nc1ccc(C(=O)N[C@@H](Cc2ccsc2)C(=O)N2CCC3(C2)OC(=O)Nc2ccc(Cl)cc23)cc1 (stereo partly drawn) [Example 32]
Reply | 7.37

Ask | Quick one: pKi of COC(=O)Nc1ccc(C(=O)N[C@@H](Cc2cscn2)C(=O)N2CCC3(C2)OC(=O)Nc2ccc(Cl)cc23)cc1 (stereo partly drawn) [Example 40] ?
Reply | 6.93

Ask | What measured pKi goes with COC(=O)Nc1ccc(C(=O)N[C@@H](Cc2ccncc2F)C(=O)N2CCC[C@@]3(C2)OC(=O)Nc2ccc(Cl)c(F)c23)cc1 [Example 76] ?
Reply | 8.92

Ask | Can you look up the measured pKi of COC(=O)Nc1ccc(C(=O)N[C@@H](Cc2ccc(-c3cc(C(F)(F)F)nn3C)cc2)C(=O)N2CC[C@@]3(C2)OC(=O)Nc2ccc(Cl)cc23)cc1 [Example 81] for me?
Reply | 8.10
